Entries annotated with measured inhibition at 50 µM
target: α-glucosidase (Saccharomyces cerevisiae)
Sequence (P53341 whole entry): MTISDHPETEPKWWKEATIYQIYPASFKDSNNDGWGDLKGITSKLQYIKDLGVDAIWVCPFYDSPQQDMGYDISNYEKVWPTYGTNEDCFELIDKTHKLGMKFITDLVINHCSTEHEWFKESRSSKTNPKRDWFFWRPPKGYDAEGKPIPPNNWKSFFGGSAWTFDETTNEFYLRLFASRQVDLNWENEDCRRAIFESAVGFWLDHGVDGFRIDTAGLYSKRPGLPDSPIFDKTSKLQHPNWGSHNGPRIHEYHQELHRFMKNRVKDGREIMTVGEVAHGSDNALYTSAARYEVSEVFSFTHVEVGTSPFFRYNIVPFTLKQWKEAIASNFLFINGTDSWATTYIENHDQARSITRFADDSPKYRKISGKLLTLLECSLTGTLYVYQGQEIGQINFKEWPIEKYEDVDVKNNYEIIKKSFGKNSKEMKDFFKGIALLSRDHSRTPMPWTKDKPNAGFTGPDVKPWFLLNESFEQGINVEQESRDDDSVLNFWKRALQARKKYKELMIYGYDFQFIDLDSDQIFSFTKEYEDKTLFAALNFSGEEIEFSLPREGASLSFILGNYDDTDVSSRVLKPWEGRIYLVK
method.notes: α-Glucosidase inhibitory assay (pNPG substrate, absorbance at 405 nm)
Assay type: biochemical
condition.set: at a concentration of 50 μM; means ± SD (n = 3); read-out: Inhibition Rate (in vitro α-glucosidase inhibitory activity)
test.readout: inhibition at 50 µM (%)

compound | target | reading.unit | endpoint.value
COc1cc(C2OCC3C(c4cc(OC)c(O)c(OC)c4)OCC23)cc(OC)c1O (stereo not drawn) | α-glucosidase (Saccharomyces cerevisiae) | % | 4.8
COc1cc(C[C@@H](CO)[C@H](CO)Cc2ccc(O)c(OC)c2)ccc1O [Compound 17, (−)-secoisolariciresinol] | α-glucosidase (Saccharomyces cerevisiae) | % | 37.6
COc1cc([C@@H]2c3c(cc(OC)c(O)c3OC)C[C@H](CO)[C@H]2CO)cc(OC)c1O [Compound 16, (−)-lyoniresinol] | α-glucosidase (Saccharomyces cerevisiae) | % | 7.5
CCCC/C=C\CCCCCCCc1cc2cc(O)ccc2o1 [Compound 7, 2-[8′(Z)-tridecenyl]-benzofuran-5-ol] | α-glucosidase (Saccharomyces cerevisiae) | % | 96.7
COc1cc([C@H]2c3cc(O)c(OC)cc3C[C@@H](CO)[C@@H]2CO)ccc1O [Compound 15, (+)-isolariciresinol] | α-glucosidase (Saccharomyces cerevisiae) | % | 16.6
Oc1cc(O)c2c(c1)O[C@H](c1ccc(O)c(O)c1)[C@@H](O)C2 | α-glucosidase (Saccharomyces cerevisiae) | % | 61.1
CCCCC=CCCCCCCCCCC(O)CC1=CC(=O)CC(O)C1O (stereo not drawn) | α-glucosidase (Saccharomyces cerevisiae) | % | -11.2
CCCC/C=C\CCCCCCCCCCCc1cc2cc(O)ccc2o1 | α-glucosidase (Saccharomyces cerevisiae) | % | 98.7
O=C1c2c(O)cc(O)cc2O[C@H](c2ccc(O)cc2)[C@H]1O [Compound 11, dihydrokaempferol] | α-glucosidase (Saccharomyces cerevisiae) | % | 43.8
CCCCC=CCCCCCCCCCCCCCC1(O)CC(O)C=CC1O (stereo not drawn) | α-glucosidase (Saccharomyces cerevisiae) | % | -13.6
CCCCC=CCCCCCCCCCC(O)CC1=CC(=O)CCC1O (stereo not drawn) | α-glucosidase (Saccharomyces cerevisiae) | % | 11.1
O=C1C[C@@H](c2ccc(O)c(O)c2)Oc2cc(O)cc(O)c21 | α-glucosidase (Saccharomyces cerevisiae) | % | 66.6
CCCC/C=C\CCCCCCCCCc1cc2cc(O)ccc2o1 [Compound 6, 2-[10′(Z)-pentadecenyl]-benzofuran-5-ol] | α-glucosidase (Saccharomyces cerevisiae) | % | 97.7
CCCCC=CCCCCCCCCCC1(O)CC(O)CCC1O (stereo not drawn) | α-glucosidase (Saccharomyces cerevisiae) | % | -8.1
CCCCC=CCCCCCCCCCCCC1(O)CC(O)C=CC1O (stereo not drawn) | α-glucosidase (Saccharomyces cerevisiae) | % | -12.4
